assay: Placebo controlled, dose escalation pharmacokinetic study of oral (Z)-Endoxifen capsules (serum endoxifen; incl. accumulation ratios and dose linearity); format: in vivo, human; conditions: female, human, serum, po, 4 mg, Day 1; dose 4 mg oral; Median, N 6; read-out: AUC0-inf
READOUT TYPE: AUC(0-inf) (µg·h/mL)

- CC/C(=C(\c1ccc(O)cc1)c1ccc(OCCNC)cc1)c1ccccc1 [(Z)-Endoxifen]: 1.76

###

Test: Placebo controlled, dose escalation pharmacokinetic study of oral (Z)-Endoxifen capsules (serum endoxifen; incl. accumulation ratios and dose linearity)
Assay type: in vivo, human
Conditions: female, human, serum, po, 4 mg, Day 21; dose 4 mg oral once daily; GeoMean, N 6; read-out: volume of distribution (Vd/F)
Source text: An objective of the study was to assess the safety and tolerability of oral (Z)-Endoxifen when administered […] orally as a capsule to healthy female volunteers. A secondary objective was to assess the pharmacokinetics of multiple doses of oral (Z)-Endoxifen in the subjects. Generally, healthy female volunteers aged ≥18 years and ≤65 years were enrolled. 24 participants were enrolled in 3 cohorts and will be administered study drug orally. […]
READOUT TYPE: Vd/F (L)

- CC/C(=C(\c1ccc(O)cc1)c1ccc(OCCNC)cc1)c1ccccc1 [(Z)-Endoxifen]: 148

###

assay: Placebo controlled, dose escalation pharmacokinetic study of oral (Z)-Endoxifen capsules (serum endoxifen; incl. accumulation ratios and dose linearity); format: in vivo, human; conditions: female, human, serum, oral, 1 mg; Day 4 Hr 72; read-out: Serum concentration, GeoMean
READOUT TYPE: concentration at 72 h (nM)

• CC/C(=C(\c1ccc(O)cc1)c1ccc(OCCNC)cc1)c1ccccc1 [(Z)-Endoxifen] = 7.84

###

experiment: Placebo controlled, dose escalation pharmacokinetic study of oral (Z)-Endoxifen capsules (serum endoxifen; incl. accumulation ratios and dose linearity); type: in vivo, human; details: female, human, serum, oral, 1 mg; Day 1 hr 8; read-out: Serum concentration, Median
READOUT TYPE: concentration at 8 h (nM)

- CC/C(=C(\c1ccc(O)cc1)c1ccc(OCCNC)cc1)c1ccccc1 [(Z)-Endoxifen]: 21.4

###

test: Placebo controlled, dose escalation pharmacokinetic study of oral (Z)-Endoxifen capsules (serum endoxifen; incl. accumulation ratios and dose linearity); type: in vivo, human; details: female, human, serum, po, 4 mg, Day 21; dose 4 mg oral once daily; Median, N 6; read-out: AUC24hr
READOUT TYPE: AUC(0-t)

* CC/C(=C(\c1ccc(O)cc1)c1ccc(OCCNC)cc1)c1ccccc1 [(Z)-Endoxifen] | 2470 ng·h/mL

###

assay: Placebo controlled, dose escalation pharmacokinetic study of oral (Z)-Endoxifen capsules (serum endoxifen; incl. accumulation ratios and dose linearity); format: in vivo, human; conditions: female, human, serum, po, 1 mg/day, Day 1; 1 mg/day oral (n = 5); read-out: t1/2, Arithmetic Mean (converted)
READOUT TYPE: half-life (h)

- CC/C(=C(\c1ccc(O)cc1)c1ccc(OCCNC)cc1)c1ccccc1 [(Z)-Endoxifen]: 41.1

###

experiment: Placebo controlled, dose escalation pharmacokinetic study of oral (Z)-Endoxifen capsules (serum endoxifen; incl. accumulation ratios and dose linearity); format: in vivo, human; conditions: female, human, serum, oral, 1 mg, Day 21; 1 mg; N = 5; read-out: Tmax, Median
READOUT TYPE: Tmax

• CC/C(=C(\c1ccc(O)cc1)c1ccc(OCCNC)cc1)c1ccccc1 [(Z)-Endoxifen] = 8 h
